# Tested on: HCT-116 colon
# Assay notes: NCI-60 one-dose screen, 48 h (100 = growth as untreated, 0 = no growth, -100 = all killed)
# Setup conditions: 10 µM unless noted
Compounds without any hit were thinned out: in the full panel of roughly 83,000, 20% have a hit.
Property measured: growth (%)
A number alone suffices; assume %.

Challenge: Looking for the measured growth of `CCCCCn1ncc(-c2c(O)c(O)cc3c(O)c(-c4c(C)cc5c(-c6cnn(CCCCC)n6)c(O)c(O)cc5c4O)c(C)cc23)n1` , can you help?
Response given: 3.24

Challenge: Looking for the measured growth of `CC(=S)Nc1ccccc1` , can you help?
Response given: 104

Challenge: Looking for the measured growth of `COc1ccc(/C=C/C(=O)c2ccc(Oc3ncnc4ccccc34)cc2)cc1OC` , can you help?
Response given: -42.6

Challenge: Looking for the measured growth of `CC(C)CCC[C@@H](C)[C@H]1CC[C@H]2[C@@H]3CC=C4N(c5ccccc5)C(=O)CC[C@]4(C)[C@H]3CC[C@]12C` , can you help?
Response given: 99.2

Challenge: Looking for the measured growth of `Cc1[nH]c2ccc(F)cc2c1CCNC(=O)C1CCN(C(=O)c2ccc(-c3ccccc3)cc2)CC1` , can you help?
Response given: 32.5

Challenge: Looking for the measured growth of `Cc1c(NC(=O)c2sc3nc4c(cc3c2N)CN(Cc2ccccc2)CC4)cccc1C(F)(F)F` , can you help?
Response given: 19.5

Challenge: Looking for the measured growth of `CCCCCC/C=N/Nc1ccc([N+](=O)[O-])cn1` , can you help?
Response given: 84.7

Challenge: Looking for the measured growth of `Cc1ccc(-c2cn3cc([N+](=O)[O-])ccc3n2)cc1` , can you help?
Response given: 70.3

Challenge: Looking for the measured growth of `Cc1cc(NCCN(C(C)C)C(C)C)nc(/N=C(\N)Nc2ccc(Cl)c(C(F)(F)F)c2)n1` , can you help?
Response given: -100

Challenge: Looking for the measured growth of `O=C(NCCNc1nccc(-c2c(-c3cccc(O)c3)nc3sccn23)n1)c1ccccc1O` , can you help?
Response given: 25.9

Challenge: Looking for the measured growth of CC(=O)c1ccc2c(c1)C1C=CCC1[C@H](c1cc3c(cc1Br)OCO3)N2 (stereo partly specified) , can you help?
Response given: 14.9

Challenge: Looking for the measured growth of `Nc1ncnc2c1c(-c1ccc(Oc3ccccc3)cc1)nn2C[C@@H]1SSC[C@H]1O` , can you help?
Response given: 46.4

Challenge: Looking for the measured growth of `CCN(CC)CCNC(=O)c1c(C)[nH]c(/C=C2\C(=O)Nc3cc(NC(=O)NC(=O)c4ccc(OC)cc4F)ccc32)c1C` , can you help?
Response given: 64.7

Challenge: Looking for the measured growth of `CCCOC(=O)c1ccc([N+](=O)[O-])o1` , can you help?
Response given: 105

Challenge: Looking for the measured growth of `NC(N)=N/N=C/c1ccc([N+](=O)[O-])cc1` , can you help?
Response given: 90.6

Challenge: Looking for the measured growth of `CCN1CCN(Cc2ccc(NC(=O)Nc3cccc(-n4ccc5c(NC(=O)c6ccccc6)nccc54)c3)cc2C(F)(F)F)CC1` , can you help?
Response given: 75.8

Challenge: Looking for the measured growth of CN1C(=O)C2(NN=C(c3cccc4ccccc34)S2)c2ccccc21 (stereo unspecified) , can you help?
Response given: 14.8

Challenge: Looking for the measured growth of `O=C(/C=C/c1ccco1)c1cccc(Nc2nc(Nc3ccccc3)nc(Nc3ccccc3)n2)c1` , can you help?
Response given: 40.4

Challenge: Looking for the measured growth of `COc1ccc(-c2nnc(SCC(=O)Nc3ccc(C(=O)/C=C/c4ccccc4)cc3)o2)cc1OC` , can you help?
Response given: 51.8

Challenge: Looking for the measured growth of `COc1cc(-c2nc3sc(C)cn3c2/C=C2\C(=O)Nc3ccccc32)c(Br)c(OC)c1OC` , can you help?
Response given: 22

Challenge: Looking for the measured growth of `CC(C)C(=O)Nc1nc2c(s1)CCCc1ccn(S(=O)(=O)c3ccccc3)c1-2` , can you help?
Response given: 78.9

Challenge: Looking for the measured growth of `O=C1C(Cl)=C(Nc2ccccc2)C(=O)C(Cl)=C1Nc1ccccc1` , can you help?
Response given: 112

Challenge: Looking for the measured growth of `Cc1cc(-c2ccccc2)nc2ccccc12` , can you help?
Response given: 99.7

Challenge: Looking for the measured growth of `c1coc(CSc2ncnc3nc[nH]c23)c1` , can you help?
Response given: 97.7

Challenge: Looking for the measured growth of `COC(=O)c1oc2c(C(C)=O)c(OCCN3CCCCC3)ccc2c1C` , can you help?
Response given: 89.7

Challenge: Looking for the measured growth of CC(C)CNCC(O)COc1ccc(C(C)(C)c2ccc(OCC(O)CNCC(C)C)cc2)cc1 (stereo unspecified) , can you help?
Response given: 0.347

Challenge: Looking for the measured growth of `O=C(Nc1ccc(-n2cc(-c3ccncc3)c(-c3ccc(O)c(Cl)c3)n2)cc1)c1cc(C(F)(F)F)cc(C(F)(F)F)c1` , can you help?
Response given: 40.3

Challenge: Looking for the measured growth of `O=C(Nc1ccc(-n2cc(-c3ccncc3)c(-c3ccc(O)c(Cl)c3)n2)cc1)c1cc(Cl)cc(Cl)c1` , can you help?
Response given: 17.6

Challenge: Looking for the measured growth of COc1cc(NC(C)CCCN2C(=O)c3ccccc3C2=O)c2nc(C)ccc2c1OC (stereo unspecified) , can you help?
Response given: 85.4

Challenge: Looking for the measured growth of `CCc1c(C)c2cc3c(c(C)c2oc1=O)OCC(=O)N3` , can you help?
Response given: 52.7

Challenge: Looking for the measured growth of `NN=C(c1ccc(Cl)cc1)c1ccc(Cl)cc1` , can you help?
Response given: 98.4

Challenge: Looking for the measured growth of `O=C(O)c1cccc2oc(-c3ccccc3O)nc12` , can you help?
Response given: 36.8

Challenge: Looking for the measured growth of O=C(COc1ccc(Cl)cc1Cl)N1N=C(c2ccc(Cl)cc2Cl)CC1(O)c1cc(F)c(Cl)cc1Cl (stereo unspecified) , can you help?
Response given: 95

Challenge: Looking for the measured growth of Cc1cn(C2CC(F)C(CO)O2)c(=O)[nH]c1=O (stereo unspecified) , can you help?
Response given: 95.6

Challenge: Looking for the measured growth of `Fc1ccc(Nc2ncnc3ccc(-c4cn[nH]c4)cc23)cc1Cl` , can you help?
Response given: 51.2

Challenge: Looking for the measured growth of `Clc1ccc2c(NCCNc3nc(Cl)nc4ccccc34)ccnc2c1` , can you help?
Response given: -96.7

Challenge: Looking for the measured growth of `Cc1nc(-c2ccc(Cl)cc2)ccc1NC(=O)Nc1cccc(C(F)(F)F)c1` , can you help?
Response given: 74.5

Challenge: Looking for the measured growth of O=C(NOC1OC(CO)C(O)C(O)C1O)Nc1ccccc1 (stereo unspecified) , can you help?
Response given: 105

Challenge: Looking for the measured growth of `O=[N+]([O-])c1ccc(NS(=O)(=O)c2cc(Cl)ccc2Cl)c2ccccc12` , can you help?
Response given: 45

Challenge: Looking for the measured growth of COc1cc(NC(C)CCCN2C(=O)c3ccccc3C2=O)c2nccc(C)c2c1OC (stereo unspecified) , can you help?
Response given: 87.8

Challenge: Looking for the measured growth of `CCCC(C)(C)COC(=O)c1cccc(N)c1` , can you help?
Response given: 84.9

Each recorded value in this set is attributed to PubChem BioAssay (NCI).
